The measurements presented in this section are drawn from patent US8822517B2.

- Test system: sigma σ receptor
- protocol_description: Binding assay σ (non-selective), [3H]DTG, rat cerebral cortex
- run_conditions: percent inhibition of control specific binding; compounds tested at 1×10^−6 M

smiles_representation	system_under_test	unit_label	σ [%]
O=c1[nH]c2cccc(N3CCN(CCCNS(=O)(=O)c4ccc5ccccc5c4)CC3)c2[nH]1	sigma σ receptor	%	−3
O=c1[nH]c2cccc(N3CCN(CCCNS(=O)(=O)c4cccc(Cl)c4)CC3)c2[nH]1	sigma σ receptor	%	−16
O=S(=O)(NCCCCN1CCN(c2cccc3[nH]ccc23)CC1)c1cccc(Cl)c1	sigma σ receptor	%	92
O=S(=O)(NCCCN1CCN(c2nsc3ccccc23)CC1)c1ccc2cn[nH]c2c1	sigma σ receptor	%	30
O=S(=O)(NCCCN1CCN(c2nsc3ccccc23)CC1)c1ccc(Cl)c(Cl)c1	sigma σ receptor	%	61
O=S(=O)(NCCCCN1CCC(c2noc3cc(F)ccc23)CC1)c1ccc(F)c(F)c1	sigma σ receptor	%	63
O=S(=O)(NCCCCN1CCN(c2cccc3[nH]ccc23)CC1)c1ccc(F)cc1	sigma σ receptor	%	85
Cc1cccc(S(=O)(=O)NCCCCN2CCN(c3nsc4ccccc34)CC2)c1	sigma σ receptor	%	66
N#Cc1cccc(S(=O)(=O)NCCCN2CCC(c3noc4cc(F)ccc34)CC2)c1	sigma σ receptor	%	72
O=S(=O)(NCCCN1CCN(c2nsc3ccccc23)CC1)c1ccc(Br)cc1	sigma σ receptor	%	59
O=S(=O)(NCCCCN1CCN(c2nsc3ccccc23)CC1)c1ccc2c(c1)OCO2	sigma σ receptor	%	52
O=S(=O)(NCCCN1CCN(c2nsc3ccccc23)CC1)c1ccc(F)c(F)c1	sigma σ receptor	%	68
O=c1[nH]c2ccc(S(=O)(=O)NCCCCN3CCN(c4nsc5ccccc45)CC3)cc2o1	sigma σ receptor	%	1
O=S(=O)(NCCCCN1CCN(c2nsc3ccccc23)CC1)c1cccc(O)c1	sigma σ receptor	%	62
O=S(=O)(NCCCCN1CCN(c2nsc3ccccc23)CC1)c1csc2ccccc12	sigma σ receptor	%	44
O=S(=O)(NCCCCN1CCN(c2nsc3ccccc23)CC1)c1ccc2cc(Cl)ccc2c1	sigma σ receptor	%	46
O=S(=O)(NCCCCN1CCC(c2noc3cc(F)ccc23)CC1)c1ccc(Br)cc1	sigma σ receptor	%	68

====

Quick list: inhibition at 1 µM per entry.
- system_under_test: UniProt P50406
- Sequence (P50406 whole entry): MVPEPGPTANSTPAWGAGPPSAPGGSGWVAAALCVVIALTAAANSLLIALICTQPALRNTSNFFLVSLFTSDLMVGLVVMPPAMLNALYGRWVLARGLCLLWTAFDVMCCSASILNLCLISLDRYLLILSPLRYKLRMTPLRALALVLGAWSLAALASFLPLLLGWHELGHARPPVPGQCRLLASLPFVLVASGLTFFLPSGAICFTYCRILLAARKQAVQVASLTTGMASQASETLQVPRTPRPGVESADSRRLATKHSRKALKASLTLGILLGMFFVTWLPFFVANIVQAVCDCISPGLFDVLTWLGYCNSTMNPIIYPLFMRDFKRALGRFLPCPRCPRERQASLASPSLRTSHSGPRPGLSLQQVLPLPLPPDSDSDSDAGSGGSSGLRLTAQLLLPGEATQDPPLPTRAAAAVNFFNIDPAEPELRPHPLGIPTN
- protocol_description: Binding assay 5-HT6 (h), [3H]LSD, CHO cells
- Set-up: expressed in transfected cells; host or cells: CHO cells
- run_conditions: read-out: 5-HT6

smiles_representation	system_under_test	inhibition at 1 µM [%]
Cn1ccc2c(S(=O)(=O)NCCCCN3CCC(c4noc5cc(F)ccc45)CC3)cccc21	UniProt P50406	89
O=c1[nH]c2ccc(S(=O)(=O)NCCN3CCN(c4nsc5ccccc45)CC3)cc2o1	UniProt P50406	80
O=S(=O)(NCCCCN1CCN(c2cccc3[nH]ccc23)CC1)c1cc2ccc(Cl)cc2s1	UniProt P50406	84
COc1cccc(S(=O)(=O)NCCCCN2CCN(c3nsc4ccccc34)CC2)c1	UniProt P50406	76
O=S(=O)(NCCCN1CCN(c2nsc3ccccc23)CC1)c1ccc2cc(Cl)ccc2c1	UniProt P50406	69
Cn1ccc2c(S(=O)(=O)NCCCN3CCC(c4noc5cc(F)ccc45)CC3)cccc21	UniProt P50406	77
O=S(=O)(NCCCN1CCC(c2noc3cc(F)ccc23)CC1)c1cccc2ccccc12	UniProt P50406	85
Cc1cccc(S(=O)(=O)NCCN2CCC(c3noc4cc(F)ccc34)CC2)c1	UniProt P50406	71
O=S(=O)(NCCCN1CCN(c2nsc3ccccc23)CC1)c1cccc(F)c1	UniProt P50406	78
Cc1c(S(=O)(=O)NCCCN2CCC(c3noc4cc(F)ccc34)CC2)sc2ccc(Cl)cc12	UniProt P50406	96
N#Cc1cccc(S(=O)(=O)NCCCCN2CCN(c3cccc4[nH]ccc34)CC2)c1	UniProt P50406	69
O=S(=O)(NCCCN1CCC(c2noc3cc(F)ccc23)CC1)c1cccc(F)c1	UniProt P50406	86
O=C1COc2c(cccc2N2CCN(CCCCNS(=O)(=O)c3cccc(C(F)(F)F)c3)CC2)N1	UniProt P50406	94
Cc1cccc(S(=O)(=O)NCCCN2CCC(c3noc4cc(F)ccc34)CC2)c1	UniProt P50406	99
O=S(=O)(NCCCN1CCN(c2nsc3ccccc23)CC1)c1ccc(OC(F)(F)F)cc1	UniProt P50406	74
N#Cc1cccc(S(=O)(=O)NCCCN2CCN(c3nsc4ccccc34)CC2)c1	UniProt P50406	95
O=S(=O)(NCCCCN1CCN(c2noc3ccccc23)CC1)c1ccc(Cl)c(Cl)c1	UniProt P50406	92

====

- system_under_test: serotoninergic 5-HT7 receptor (Homo sapiens)
- Sequence (P34969 whole entry): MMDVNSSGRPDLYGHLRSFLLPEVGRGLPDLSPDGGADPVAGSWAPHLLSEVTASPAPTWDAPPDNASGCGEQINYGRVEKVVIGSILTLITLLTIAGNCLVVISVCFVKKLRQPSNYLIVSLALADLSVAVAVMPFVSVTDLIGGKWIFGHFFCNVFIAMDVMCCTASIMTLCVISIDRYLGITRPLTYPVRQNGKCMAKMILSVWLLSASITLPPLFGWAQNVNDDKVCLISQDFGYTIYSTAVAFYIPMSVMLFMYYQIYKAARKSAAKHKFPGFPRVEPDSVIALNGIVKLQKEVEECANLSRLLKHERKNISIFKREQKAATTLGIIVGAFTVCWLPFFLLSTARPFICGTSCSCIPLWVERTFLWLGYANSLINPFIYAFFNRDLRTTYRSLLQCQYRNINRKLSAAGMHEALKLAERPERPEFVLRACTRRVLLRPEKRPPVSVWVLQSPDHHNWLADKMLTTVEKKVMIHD
- protocol_description: Binding assay 5-HT7 (h), [3H]LSD, CHO cells
- Design: expressed in transfected cells; host or cells: CHO cells
- run_conditions: read-out: 5-HT7
Quick list: inhibition at 1 µM per entry.
recorded_metric: inhibition at 1 µM (%)

compound	value_reported
O=S(=O)(NCCCCN1CCC(c2noc3cc(F)ccc23)CC1)c1ccc(-c2ccccc2)cc1 [Compound 111]	93
O=S(=O)(NCCCN1CCC(c2noc3cc(F)ccc23)CC1)c1cccc2scnc12 [Compound 351]	94
N#Cc1cccc(S(=O)(=O)NCCCN2CCN(c3nsc4ccccc34)CC2)c1 [Compound 74]	97
Cc1c(S(=O)(=O)NCCCCN2CCC(c3noc4cc(F)ccc34)CC2)sc2ccc(F)cc12 [Compound 101]	98
O=c1[nH]c2cccc(N3CCN(CCCCNS(=O)(=O)c4ccc5ccccc5c4)CC3)c2[nH]1 [Compound 419]	86
N#Cc1cccc(S(=O)(=O)NCCCCN2CCC(c3noc4cc(F)ccc34)CC2)c1 [Compound 306]	89
O=S(=O)(NCCCCN1CCN(c2noc3ccccc23)CC1)c1cc2ccc(Cl)cc2s1 [Compound 288]	100
O=S(=O)(NCCCN1CCC(c2noc3cc(F)ccc23)CC1)c1ccc(C(F)(F)F)cc1 [Compound 334]	85
O=S(=O)(NCCCN1CCC(c2noc3cc(F)ccc23)CC1)c1ccc(Cl)cc1 [Compound 328]	92
O=S(=O)(NCCCCN1CCC(c2noc3cc(F)ccc23)CC1)c1ccc2ccccc2c1 [Compound 18]	98
O=S(=O)(NCCCCN1CCC(c2noc3cc(F)ccc23)CC1)c1ccc2c(c1)CCO2 [Compound 317]	89
O=S(=O)(NCCN1CCN(c2nsc3ccccc23)CC1)c1ccc2ccccc2c1 [Compound 10]	99
O=S(=O)(NCCCN1CCN(c2nsc3ccccc23)CC1)c1cc2ccc(Cl)cc2s1 [Compound 264]	75
O=S(=O)(NCCCCN1CCN(c2noc3ccccc23)CC1)c1cccc(Cl)c1 [Compound 85]	99
Cc1c(S(=O)(=O)NCCCN2CCC(c3noc4cc(F)ccc34)CC2)sc2ccc(F)cc12 [Compound 102]	97
O=S(=O)(NCCCN1CCC(c2noc3cc(F)ccc23)CC1)c1ccc(Cl)c(Cl)c1 [Compound 329]	95
O=S(=O)(NCCCCN1CCN(c2nsc3ccccc23)CC1)c1ccc2cn[nH]c2c1 [Compound 244]	98
O=S(=O)(NCCCN1CCN(c2nsc3ccccc23)CC1)c1c[nH]c2ncccc12 [Compound 270]	82
O=S(=O)(NCCN1CCC(c2noc3cc(F)ccc23)CC1)c1ccc2ccccc2c1 [Compound 24]	95

====

Quick list: inhibition at 1 µM per entry.
- system_under_test: serotonine transporter (SERT) receptor (Homo sapiens, UniProt P31645)
- Construct: expressed in transfected cells; host or cells: CHO cells
- Sequence (P31645 whole entry): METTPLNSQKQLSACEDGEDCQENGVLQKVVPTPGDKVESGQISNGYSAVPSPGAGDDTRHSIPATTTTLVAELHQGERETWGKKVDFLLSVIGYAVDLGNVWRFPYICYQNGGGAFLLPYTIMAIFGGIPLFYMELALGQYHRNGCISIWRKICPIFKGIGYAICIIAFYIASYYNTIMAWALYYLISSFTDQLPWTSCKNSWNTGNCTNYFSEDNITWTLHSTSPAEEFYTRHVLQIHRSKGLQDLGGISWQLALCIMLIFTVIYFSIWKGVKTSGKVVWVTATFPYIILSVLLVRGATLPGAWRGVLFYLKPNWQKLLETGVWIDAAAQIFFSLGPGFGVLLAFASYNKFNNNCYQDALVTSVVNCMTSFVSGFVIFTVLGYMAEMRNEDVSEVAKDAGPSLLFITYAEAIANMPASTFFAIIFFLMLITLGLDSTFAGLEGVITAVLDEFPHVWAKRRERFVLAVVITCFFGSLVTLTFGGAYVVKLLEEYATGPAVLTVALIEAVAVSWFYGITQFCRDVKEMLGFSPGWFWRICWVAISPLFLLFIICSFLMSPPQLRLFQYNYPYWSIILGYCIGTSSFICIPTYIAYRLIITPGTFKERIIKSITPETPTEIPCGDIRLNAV
- protocol_description: Binding assay SERT (h), [3H]imipramine, CHO cells
- run_conditions: read-out: SERT [%]

molecule	inhibition at 1 µM / %
O=S(=O)(NCCCN1CCC(c2noc3cc(F)ccc23)CC1)c1csc2ccccc12 [Compound 346]	17
O=c1[nH]c2ccc(S(=O)(=O)NCCCN3CCC(c4noc5cc(F)ccc45)CC3)cc2o1 [Compound 353]	-1
O=S(=O)(NCCCCN1CCN(c2cccc3c2OCCO3)CC1)c1ccc(Cl)s1 [Compound 398]	-7
N#Cc1cccc(S(=O)(=O)NCCCCN2CCC(c3noc4cc(F)ccc34)CC2)c1 [Compound 306]	-10
O=S(=O)(NCCCCN1CCN(c2nsc3ccccc23)CC1)c1cccc(Cl)c1 [Compound 69]	6
CC(C)(C)c1ccc(S(=O)(=O)NCCCCN2CCC(c3noc4cc(F)ccc34)CC2)cc1 [Compound 301]	45
O=S(=O)(NCCCCN1CCN(c2nsc3ccccc23)CC1)c1cc2ccccc2s1 [Compound 239]	64
O=S(=O)(NCCCCN1CCN(c2noc3ccccc23)CC1)c1ccc(Br)cc1 [Compound 274]	30

====

Quick list: inhibition at 1 µM per entry.
- system_under_test: dopaminergic D3 receptor (Homo sapiens)
- Sequence (P35462 whole entry): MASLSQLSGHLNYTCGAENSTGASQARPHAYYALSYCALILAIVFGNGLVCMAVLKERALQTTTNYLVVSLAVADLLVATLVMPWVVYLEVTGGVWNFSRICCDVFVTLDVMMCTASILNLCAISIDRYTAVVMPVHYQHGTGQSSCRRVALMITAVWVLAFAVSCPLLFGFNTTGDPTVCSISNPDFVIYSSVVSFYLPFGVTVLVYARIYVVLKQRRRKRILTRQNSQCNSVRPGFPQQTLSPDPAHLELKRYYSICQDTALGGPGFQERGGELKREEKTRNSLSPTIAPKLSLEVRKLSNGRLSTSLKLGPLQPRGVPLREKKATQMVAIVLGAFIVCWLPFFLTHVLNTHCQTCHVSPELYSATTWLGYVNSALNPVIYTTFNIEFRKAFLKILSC
- protocol_description: Binding assay D3 (h), [3H]methyl-spiperone, CHO cells
- Parameters: expressed in transfected cells; host or cells: CHO cells
- run_conditions: read-out: D3 [%]
recorded_metric: inhibition at 1 µM

molecule	system_under_test	value_reported
Cc1cccc(S(=O)(=O)NCCCN2CCC(c3noc4cc(F)ccc34)CC2)c1 [Compound 22]	dopaminergic D3 receptor (Homo sapiens)	96%
O=S(=O)(NCCCCN1CCC(c2noc3cc(F)ccc23)CC1)c1cc2ccccc2s1 [Compound 312]	dopaminergic D3 receptor (Homo sapiens)	97%
Cc1[nH]c2ccc(Cl)cc2c1C1=CCN(CCCNS(=O)(=O)c2cccc(F)c2)CC1 [Compound 140]	dopaminergic D3 receptor (Homo sapiens)	73%
N#Cc1cccc(S(=O)(=O)NCCCCN2CCN(c3cccc4[nH]ccc34)CC2)c1 [Compound 362]	dopaminergic D3 receptor (Homo sapiens)	102%
